Reported EC50 values for a set of compounds
target: FXR (Homo sapiens, UniProt Q96RI1); experiment: In Vitro FXR Assay (TK): TK-ECRE-luc reporter in transfected CV-1 cells; conditions: CV-1 cells transfected with hFXR, hRXR, 18 h incubation, luminescence
Sequence (Q96RI1 whole entry): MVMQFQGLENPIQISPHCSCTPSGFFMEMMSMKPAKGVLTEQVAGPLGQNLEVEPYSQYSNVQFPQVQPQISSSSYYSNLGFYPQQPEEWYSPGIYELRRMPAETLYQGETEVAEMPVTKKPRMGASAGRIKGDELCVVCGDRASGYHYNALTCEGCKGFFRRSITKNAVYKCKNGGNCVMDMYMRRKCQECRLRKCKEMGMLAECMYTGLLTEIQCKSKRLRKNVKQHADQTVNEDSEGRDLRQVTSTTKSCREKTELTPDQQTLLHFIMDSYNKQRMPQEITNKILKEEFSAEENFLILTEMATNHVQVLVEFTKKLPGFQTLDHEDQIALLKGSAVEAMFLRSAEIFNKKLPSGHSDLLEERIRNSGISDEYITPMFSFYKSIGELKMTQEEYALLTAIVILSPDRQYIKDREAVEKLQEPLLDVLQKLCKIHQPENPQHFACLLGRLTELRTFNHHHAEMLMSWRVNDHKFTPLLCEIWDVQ
Sequence (P19793 whole entry partner): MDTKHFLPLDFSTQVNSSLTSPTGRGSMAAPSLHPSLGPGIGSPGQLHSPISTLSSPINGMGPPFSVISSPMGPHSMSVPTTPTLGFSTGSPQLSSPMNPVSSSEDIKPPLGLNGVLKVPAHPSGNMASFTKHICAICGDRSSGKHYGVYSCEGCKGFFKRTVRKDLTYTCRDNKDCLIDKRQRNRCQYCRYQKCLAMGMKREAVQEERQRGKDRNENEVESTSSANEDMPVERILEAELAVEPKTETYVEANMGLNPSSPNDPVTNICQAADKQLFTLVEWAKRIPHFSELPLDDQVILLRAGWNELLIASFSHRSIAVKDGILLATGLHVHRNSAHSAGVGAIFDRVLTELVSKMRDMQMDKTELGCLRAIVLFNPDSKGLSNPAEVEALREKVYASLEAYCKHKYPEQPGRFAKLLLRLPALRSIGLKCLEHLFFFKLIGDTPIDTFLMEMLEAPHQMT

>>> print(df.to_string())
                                   compound                        testedsystem  propertylabel      result
0  COC(=O)/C=C/c1cccc(N(Cc2ccc(-c3ccc(N(C)C)cc3)cc2)C(=O)c2ccc(C#N)cc2)c1 [compound 4]  FXR (Homo sapiens, UniProt Q96RI1)           EC50  1 to 10 µM

Prompt line: Which EC50 is listed for COC(=O)/C=C/c1cccc(N(Cc2ccc(-c3ccc(N(C)C(=O)OC(C)(C)C)cc3)cc2)C(=O)C2CCCCC2)c1 [compound 60] ?
Response line: > 10 µM

Prompt line: What value of EC50 has been reported for the following compound? COC(=O)/C=C/c1cccc(N(Cc2ccc(-c3ccc(N(C)C)cc3)cc2)C(=O)[C@H]2CC[C@H](S(C)(=O)=O)CC2)c1 [13.15]
Response line: 1 to 10 µM

Prompt line: Need EC50 of COC(=O)/C=C/c1cccc(N(Cc2ccc(-c3ccc(N(C)C)cc3)c(C)c2)C(=O)C2CCCCC2)c1 [compound 53] , thanks.
Response line: 1 to 10 µM

Prompt line: Which measured EC50 value corresponds to COC(=O)/C=C(\C)c1cccc(N(Cc2ccc(-c3ccc(N(C)C)cc3)cc2)C(=O)C2CCCCC2)c1 [compound 45] ?
Response line: 1 to 10 µM

Prompt line: Which EC50 is listed for COC(=O)/C=C/c1cccc(N(Cc2ccc(-c3nccs3)cc2)C(=O)C2CCCCC2)c1 [compound 67] ?
Response line: 1 to 10 µM

----------
target: UniProtKB Q96RI1; assay: In Vitro FXR Assay (TK): TK-ECRE-luc reporter in transfected CV-1 cells; settings: CV-1 cells transfected with hFXR, hRXR, 18 h incubation, luminescence
pEC50: −log10 of the molar value.
// pEC50 lookup, one value per entry

Here's what some known entries look like.
>>> df
                                   molecule        result
0  COC(=O)/C=C/c1cccc(N(Cc2ccc(-c3ccc(N(C)C)cc3)cc2)C(=O)[C@H]2CC[C@@H](O)CC2)c1        ≥ 6.00
1  COC(=O)/C=C/c1cccc(N(Cc2ccc(-c3ccc(N(C)C)cc3)cc2)C(=O)C2CCOCC2)c1        ≥ 6.00
2  COC(=O)/C=C/c1cccc(N(Cc2ccc(-c3ccc(C#N)cc3)cc2)C(=O)C2CCCCC2)c1  5.00 to 6.00
3  CN(C)c1ccc(-c2ccc(CN(C(=O)C3CCCCC3)c3cccc(/C=C/C(=O)OCCO)c3)cc2)cc1  5.00 to 6.00
4  COC(=O)/C=C/c1cc(F)cc(N(Cc2ccc(-c3ccc(N(C)C)cc3)cc2)C(=O)C2CC3CCC2C3)c1 (centres unmarked)        ≥ 6.00
5  COC(=O)/C=C/c1cccc(N(Cc2ccc(-c3ccc(N(C)C)cc3)cc2)C(=O)[C@@H]2CCC[C@H](O)C2)c1 (relative stereo)        ≥ 6.00
6  COC(=O)/C=C/c1cccc(N(Cc2ccc(-c3ccccn3)cc2)C(=O)C2CCCCC2)c1  5.00 to 6.00
7  COC(=O)/C=C/c1cc(F)cc(N(Cc2ccc(-c3ccc(N(C)C)cc3)cc2)C(=O)C2CCCCC2)c1        ≥ 6.00

Prompt line: Endpoint output: pEC50 of COC(=O)/C=C/c1cccc(N(Cc2ccc(-c3ccc(S(C)(=O)=O)c(Cl)c3)cc2)C(=O)C2CCCCC2)c1 . Value?
Response line: < 5.00

Prompt line: Look at this molecule and give its reported pEC50. COC(=O)/C=C/c1cccc(N(Cc2ccc(-c3ccc(N(C)C)cc3)cc2)C(=O)[C@H]2CC[C@H](C(=O)O)CC2)c1
Response line: ≥ 6.00

Prompt line: Return reported pEC50; argument: CCOC(=O)N(Cc1ccc(-c2ccc(N(C)C)cc2)cc1)c1cccc(/C=C/C(=O)OC)c1
Response line: 5.00 to 6.00
